Would you kindly list GI50 for each of these compounds?
Test system: SF-268
Assay: Cytotoxicity against human SF268 cells after 48 hrs by sulforhodamine B assay
Type: functional
Conditions: SF-268, 48 h
A number alone suffices; assume µg/mL.

Q: Fill in reported GI50 for this entry: COc1ccc(/C=C\c2cc(OC)c(OC)c(OC)c2)cc1OP(=O)([O-])[O-].[Na+].[Na+] [FOSBRETABULIN DISODIUM]
Ans: 0.036

Q: Fill in reported GI50 for this entry: COc1ccc(/C=C\c2cc(Br)c(OC)c(OC)c2)cc1OP(=O)([O-])[O-].[Cs+].[Cs+]
Ans: 0.0064

Q: Fill in reported GI50 for this entry: COc1ccc(/C=C/c2cc(Br)c(OC)c(OC)c2)cc1O
Ans: 0.18

Q: Fill in reported GI50 for this entry: COc1ccc(/C=C/c2cc(F)c(OC)c(OC)c2)cc1O
Ans: 0.35

Q: Fill in reported GI50 for this entry: COc1ccc(/C=C\c2cc(Br)c(OC)c(OC)c2)cc1OP(=O)([O-])[O-].[Ca+2]
Ans: 0.0022
